species on record: Homo sapiens; assay: Selectivity ratio of IC50 for wild-type EGFR (unknown origin) to IC50 for EGFR T790M/L858R double mutant (unknown origin)
measured.quantity: Ratio IC50

# smiles.string, result.value
records = [
    ("C=C(Cl)C(=O)Nc1cc(Nc2nc(C)cc(-c3cn(C)c4ccccc34)n2)c(OC)cc1N(C)CCN(C)C", 8.3),
    ("C=C(F)C(=O)Nc1cc(Nc2nccc(-c3cn(C)c4ccccc34)n2)c(OC)cc1N(C)CCN(C)C", 10.8),
    ("CCC/C=C\\C(=O)Nc1cc(Nc2nc(C)cc(-c3cn(C)c4ccccc34)n2)c(OC)cc1N(C)CCN(C)C", 191),
    ("COc1cc(N(C)CCN(C)C)c(NC(=O)C=C(C)C)cc1Nc1nccc(-c2cn(C)c3ccccc23)n1", 6.1),
]
